Source listed as paper PMC10460054.

Here, each record is paired with measured Stability Short-Term RE data.
Experiment: Stability of 9 compounds in mouse plasma under storage conditions
Assay type: in vitro ADME
Settings: 12 h at 4 °C, medium QC (320 or 160 ng/mL), n = 6
Value and unit, in that order.

{"Compound": "COc1c(O[C@@H]2O[C@H](C(=O)O)[C@@H](O)[C@H](O)[C@H]2O)cc(O)c2c(=O)cc(-c3ccccc3)oc12 [Wogonoside]", "Stability Short-Term RE": "−1.39%"}
{"Compound": "COc1c(O)cc(O)c2c(=O)cc(-c3ccccc3)oc12 [Wogonin]", "Stability Short-Term RE": "11.75%"}
{"Compound": "O=C(O)[C@H]1O[C@@H](Oc2cc3oc(-c4ccccc4)cc(=O)c3c(O)c2O)[C@H](O)[C@@H](O)[C@@H]1O [Baicalin]", "Stability Short-Term RE": "−5.85%"}
{"Compound": "COc1c(O)cc2oc(-c3ccccc3)cc(=O)c2c1O [Oroxylin A]", "Stability Short-Term RE": "−5.14%"}
{"Compound": "O=c1cc(-c2ccccc2)oc2c(O)c(O)cc(O)c12 [Norwogonin]", "Stability Short-Term RE": "0.74%"}
{"Compound": "COc1c(OC2OC(C(=O)O)C(O)C(O)C2O)cc2oc(-c3ccccc3)cc(=O)c2c1O [Oroxylin A 7-O-beta-D-glucuronide]", "Stability Short-Term RE": "1.89%"}

Could you tell me which Stability Short-Term RE is on file for O=C(O)[C@H]1O[C@@H](Oc2cc(O)c3c(=O)cc(-c4ccc(O)cc4)oc3c2)[C@H](O)[C@@H](O)[C@@H]1O [Apigenin-7-glucuronide] ? −2.08%

Could you tell me which Stability Short-Term RE is on file for O=c1cc(-c2ccccc2)oc2cc(O)cc(O)c12 [Chrysin] ? −10.49%

* * *

Experiment: HPLC-MS/MS quantification of 9 compounds in plasma of RSV-infected mice after Scutellaria baicalensis Georgi administration
Format: in vivo, BALB/c mice
Set-up: unit not given here
Settings: RSV-infected mice; 12 h after last gavage of Scutellaria baicalensis Georgi extract; mean ± SD, n = 6
Here, each record is paired with measured drug-containing plasma content data.
API doc: respond with a numeric literal and nothing else, no unit.

Solved entries:
{"Compound": "COc1c(OC2OC(C(=O)O)C(O)C(O)C2O)cc2oc(-c3ccccc3)cc(=O)c2c1O [Oroxylin A 7-O-beta-D-glucuronide]", "drug-containing plasma content": 29.40}
{"Compound": "O=c1cc(-c2ccccc2)oc2cc(O)cc(O)c12", "drug-containing plasma content": 0}
{"Compound": "COc1c(O[C@@H]2O[C@H](C(=O)O)[C@@H](O)[C@H](O)[C@H]2O)cc(O)c2c(=O)cc(-c3ccccc3)oc12 [Wogonoside]", "drug-containing plasma content": 188.85}
{"Compound": "COc1c(O)cc(O)c2c(=O)cc(-c3ccccc3)oc12", "drug-containing plasma content": 3.41}

Could you tell me which drug-containing plasma content is on file for O=c1cc(-c2ccccc2)oc2c(O)c(O)cc(O)c12 ? 0

Could you tell me which drug-containing plasma content is on file for COc1c(O)cc2oc(-c3ccccc3)cc(=O)c2c1O ? 13.60

* * *

Experiment: Stability of 9 compounds in mouse plasma under storage conditions
Assay type: in vitro ADME
Settings: 3 times repeated freeze-thaw at −80 °C, high QC (20,000 or 10,000 ng/mL), n = 6
Parameter measured: Stability 3-Freeze-Thaw Cycles RE (%)
Please give a number only; it is taken to be in %.

{"Molecule": "COc1c(O)cc2oc(-c3ccccc3)cc(=O)c2c1O", "Parameter measured": "Stability 3-Freeze-Thaw Cycles RE", "Measure unit": "%", "Obs value": "−5.29"}
{"Molecule": "COc1c(O[C@@H]2O[C@H](C(=O)O)[C@@H](O)[C@H](O)[C@H]2O)cc(O)c2c(=O)cc(-c3ccccc3)oc12 [Wogonoside]", "Parameter measured": "Stability 3-Freeze-Thaw Cycles RE", "Measure unit": "%", "Obs value": 1.79}
{"Molecule": "O=c1cc(-c2ccccc2)oc2cc(O)cc(O)c12", "Parameter measured": "Stability 3-Freeze-Thaw Cycles RE", "Measure unit": "%", "Obs value": "−2.47"}
{"Molecule": "O=C(O)[C@H]1O[C@@H](Oc2cc3oc(-c4ccccc4)cc(=O)c3c(O)c2O)[C@H](O)[C@@H](O)[C@@H]1O", "Parameter measured": "Stability 3-Freeze-Thaw Cycles RE", "Measure unit": "%", "Obs value": 7.69}

Could you tell me which Stability 3-Freeze-Thaw Cycles RE is on file for COc1c(O)cc(O)c2c(=O)cc(-c3ccccc3)oc12 ? 12.89

Could you tell me which Stability 3-Freeze-Thaw Cycles RE is on file for O=c1cc(-c2ccccc2)oc2c(O)c(O)cc(O)c12 ? 1.97

Could you tell me which Stability 3-Freeze-Thaw Cycles RE is on file for COc1c(OC2OC(C(=O)O)C(O)C(O)C2O)cc2oc(-c3ccccc3)cc(=O)c2c1O [Oroxylin A 7-O-beta-D-glucuronide] ? −0.56

Could you tell me which Stability 3-Freeze-Thaw Cycles RE is on file for O=C(O)[C@H]1O[C@@H](Oc2cc(O)c3c(=O)cc(-c4ccc(O)cc4)oc3c2)[C@H](O)[C@@H](O)[C@@H]1O [Apigenin-7-glucuronide] ? 8.37
